# Test system: Pseudomonas aeruginosa
# procedure.details: Antimicrobial activity against Pseudomonas aeruginosa 1771M
# Assay type: functional
observable: MIC (µg/mL)

1) C[C@H](COS(=O)(=O)O)[C@H]1CC[C@H]2[C@@H]3[C@H](N)C[C@H]4C[C@H](NCCCNCCCCN)CC[C@]4(C)[C@H]3CC[C@]12C.Cl.Cl.Cl.Cl :: 50
2) C[C@H](CO)[C@H]1CC[C@H]2[C@@H]3[C@H](N)C[C@H]4C[C@@H](NCCCNCCCCNCCCN)CC[C@]4(C)[C@H]3CC[C@]12C.Cl.Cl.Cl.Cl.Cl :: 50

---

# System: Pseudomonas aeruginosa
# procedure.details: Antimicrobial activity against Pseudomonas aeruginosa 1771M
# Assay type: functional
observable: MIC

1. C[C@H](CO)[C@H]1CC[C@H]2[C@@H]3[C@H](N)C[C@H]4C[C@H](O)CC[C@]4(C)[C@H]3CC[C@]12C.Cl :: > 100 µg/mL
2. C[C@H](CO)[C@H]1CC[C@H]2[C@@H]3[C@H](N)C[C@H]4C[C@@H](NCCCNCCCCN)CC[C@]4(C)[C@H]3CC[C@]12C.Cl.Cl.Cl.Cl :: > 100 µg/mL

Attention now turns to another entry.
In one line, give reported MIC of the entry C[C@H](CO)[C@H]1CC[C@H]2[C@@H]3[C@H](N)C[C@H]4C[C@@H](O)CC[C@]4(C)[C@H]3CC[C@]12C.Cl .
> 100 µg/mL
